Taken from patent US20240327429A1.

Task for the reader: assign each of the following compounds its reported Qh [%].
Test system: human hepatocytes
assay: Evaluation of hepatocyte clearance (metabolic stability)
Format: in vitro ADME
condition_description: 1 μM test compound, 5% human serum, Table 3
Description: The metabolic degradation of the test compound is assayed in a hepatocyte suspension. […] Decline of Parent Compound is Analyzed by HPLC-MS/MS. CLint is Calculated as Follows: […] The calculated in vitro hepatic intrinsic clearance can be scaled up to the intrinsic in vivo hepatic clearance and used to predict hepatic in vivo blood clearance (CL) by the use of a liver model (well stirred model). […]
Give bare numbers, in %.

> print(dat)
                                   molecule  recorded.value
1  Cc1cc(F)ccc1CSc1nc2ncsc2c(=O)n1-c1cnc(O)c(F)c1              34
2  Cc1cc(F)cc(C)c1CSc1nc2ncsc2c(=O)n1-c1cnc(O)nc1              15
3  O=c1c2scnc2nc(SCc2c(F)cc(F)cc2F)n1-c1cc(F)c(O)cn1              51
4  O=c1c2scnc2nc(SCc2c(F)cc(F)cc2F)n1-c1cnc(O)cc1F              25
5  O=c1c2scnc2nc(SCc2ccc(F)cc2F)n1-c1cnc(O)c(F)c1              11

# batch size: 3; output Qh [%] per entry
1. O=c1c2scnc2nc(SCc2c(F)cc(F)cc2F)n1-c1cnc(O)c(F)c1F
2. O=c1c2scnc2nc(SCc2ccc(Cl)cc2Cl)n1-c1cnc(O)c(F)c1
3. O=c1c2scnc2nc(SCc2c(F)cc(F)cc2F)n1-c1ccc(O)cc1F

### Response
[20, 26, 73]

====

study_target: NOX2 (Homo sapiens, UniProt P04839)
Construct: endogenous in cells
Sequence (P04839 2-570 limits assumed): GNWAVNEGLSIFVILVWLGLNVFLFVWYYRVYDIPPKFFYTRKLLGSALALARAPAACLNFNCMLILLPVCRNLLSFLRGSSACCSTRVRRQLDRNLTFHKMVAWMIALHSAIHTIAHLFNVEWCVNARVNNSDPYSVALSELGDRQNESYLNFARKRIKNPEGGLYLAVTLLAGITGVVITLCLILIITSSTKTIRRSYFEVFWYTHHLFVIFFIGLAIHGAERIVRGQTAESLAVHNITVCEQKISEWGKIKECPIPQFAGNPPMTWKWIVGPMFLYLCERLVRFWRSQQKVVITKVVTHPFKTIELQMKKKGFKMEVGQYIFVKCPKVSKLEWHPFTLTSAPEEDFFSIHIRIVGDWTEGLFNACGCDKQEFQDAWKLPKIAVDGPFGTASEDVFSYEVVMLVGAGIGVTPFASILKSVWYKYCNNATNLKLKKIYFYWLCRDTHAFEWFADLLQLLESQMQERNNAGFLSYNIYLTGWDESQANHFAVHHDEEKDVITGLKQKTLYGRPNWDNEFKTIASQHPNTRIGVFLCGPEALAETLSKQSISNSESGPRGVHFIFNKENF
Sequence (P13498 2-195 partner limits assumed): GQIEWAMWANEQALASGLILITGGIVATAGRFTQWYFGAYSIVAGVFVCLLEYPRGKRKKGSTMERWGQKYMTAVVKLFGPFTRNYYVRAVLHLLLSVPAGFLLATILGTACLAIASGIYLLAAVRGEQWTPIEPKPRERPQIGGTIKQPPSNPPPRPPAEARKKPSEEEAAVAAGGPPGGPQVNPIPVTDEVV
assay: NOX2 inhibition assay (L-012), human blood-derived granulocytes
condition_description: fMLP/PMA stimulated
pIC50: −log10 of the molar value.
metric: pIC50

> print(dat)
                                   molecule  metric  recorded.value
1  O=c1c2scnc2nc(SCc2ccc(C(F)(F)F)cc2)n1-c1cnc(O)nc1   pIC50          < 4.00
2  O=c1c2scnc2nc(SCc2c(F)cc(F)cc2F)n1-c1ccc(O)c(F)c1   pIC50          < 4.52
3  O=c1c2scnc2nc(SCc2c(F)cc(F)cc2F)n1-c1ccc(O)c(Cl)c1   pIC50          < 4.00

Answer for every listed entry: what is its pIC50? The entries follow.
1. Cc1cc(F)cc(C)c1CSc1nc2ncsc2c(=O)n1-c1ccc(O)nn1
2. O=c1c2scnc2nc(SCc2ccc(F)cc2F)n1-c1cnc(O)c(F)c1
3. O=c1c2scnc2nc(SCc2ccc(Cl)cc2F)n1-c1ccc(O)nn1
4. O=c1c2scnc2nc(SCc2ccc(F)cc2)n1-c1ccc(O)nc1
5. O=c1c2scnc2nc(SCc2ccc(C(F)(F)F)cc2F)n1-c1cnc(O)nc1

### Response
1: 4.34; 2: < 4.00; 3: < 4.00; 4: < 4.52; 5: < 4.00

### Prompt Give the measured pIC50 of O=c1c2scnc2nc(SCc2ccc(Cl)cc2F)n1-c1cnc(O)nc1 .
### Response < 4.00
